assay: chemical genetic growth profiling, strain panel (AID 1159580);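 also: tested at 20 µM; growth read once vehicle control cultures reached saturation at 30 °C; 1 = growth at the plate median or of vehicle wells; lower values mean less growth of the strain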; conditions: S. cerevisiae deletion strains, growth OD, locus YMR205C, strain PFK2, hits give low values
Hit rate of the full screen: of about 5,500 compounds, about 2,000 (36%) were called active. About 18% were inconclusive and are not listed. The list shows a part of the results.
measurement.kind: normalized growth
Please respond with just the number, no unit label.

Consider the compound shown here: CSCCC(NC=O)C(=O)NC(CC(C)C)C(=O)NC(Cc1ccccc1)C(=O)O (stereo not given) What is its recorded normalized growth?
1

# lookup: normalized growth of CC(=O)Oc1ccc2c(c1)CCC1C2CCC2(C)C1CC(OC(C)=O)C2OC(C)=O (stereo not given)
0.972

# normalized growth lookup, item CCCC(=O)Nc1ncnc2c1ncn2C1O[C@@H]2COP(=O)(O)O[C@H]2[C@H]1OC(=O)CCC (stereo not given in full)
0.98

Could you tell me which normalized growth is on file for OC[C@@H](O)C(O[C@@H]1O[C@H](CO)[C@H](O)[C@H](O)[C@H]1O)[C@H](O)[C@@H](O)CO (stereo not given in full) ?
0.994

I would be grateful if you could share the reported normalized growth for CCCCC(=O)O[C@H]1CCC2C3CCc4cc(O)ccc4C3CC[C@@]21C (stereo not given in full) .
0.985

Consider the compound "COC(=O)C1=CO[C@@H](O[C@@H]2O[C@H](CO)[C@@H](O)[C@H](O)[C@H]2O)[C@@H]2[C@@H](C)[C@@H](O)C[C@H]12" and give its measured normalized growth.
0.952

Look at this compound and give its reported normalized growth. CCC(=O)O[C@H]1CCC2C3CCc4cc(O)ccc4C3CC[C@@]21C (stereo not given in full)
0.929

Consider the compound shown here: "Cn1cnc([N+](=O)[O-])c1Sc1ncnc2nc[nH]c12" What is its recorded normalized growth?
1.02

Param item = "NCCS" ; retrieve measured normalized growth.
0.983

Look up normalized growth for this compound: CC(C)CCCC(C)[C@H]1CCC2C3CC[C@H]4CC(=O)CC[C@]4(C)C3CC[C@@]21C (stereo not given in full)
1.02

---

experiment: chemical genetic growth profiling, strain panel (AID 1159580);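 also: tested at 20 µM; growth read once vehicle control cultures reached saturation at 30 °C; 1 = growth at the plate median or of vehicle wells; lower values mean less growth of the strain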; conditions: S. cerevisiae deletion strains, growth OD, locus YOR316C, strain cot1, hits give low values
Screen size: about 5,500 compounds; about 2,000 (36%) were called active. Roughly 18% stayed inconclusive and do not appear here. This is one part of the list.
measurement.kind: normalized growth

Reference set (10 entries):
[[record]]
compound = "CC(C)CCCC(C)C1CCC2C3CCC4CC(=O)CCC4(C)C3CCC12C (stereo unspecified)"
measurement_kind = "normalized growth"
test_result = "1.02 (inactive)"

[[record]]
compound = "COc1ccc(Cc2nccc3cc(OC)c(OC)cc23)cc1OC"
measurement_kind = "normalized growth"
test_result = "1 (inactive)"

[[record]]
compound = "COC(=O)C[C@H]1C(C)(C)[C@@H](OC(C)=O)[C@@H]2CC3C4CC(=O)O[C@@H](c5ccoc5)[C@]4(C)CCC3[C@@]1(C)C2=O (stereo partly specified)"
measurement_kind = "normalized growth"
test_result = "1.02 (inactive)"

[[record]]
compound = "COc1cc(O)c(C(=O)O)c(O)c1"
measurement_kind = "normalized growth"
test_result = "1 (inactive)"

[[record]]
compound = "COc1cc(O)c(C)c(O)c1"
measurement_kind = "normalized growth"
test_result = "1.01 (inactive)"

[[record]]
compound = "O=C1c2ccccc2C(=O)c2c1ccc(O)c2O"
measurement_kind = "normalized growth"
test_result = "0.474 (active)"

[[record]]
compound = "COc1cc(O)c(C(=O)c2ccccc2)c(OC)c1"
measurement_kind = "normalized growth"
test_result = "0.981 (inactive)"

[[record]]
compound = "CCCCC(=O)N(Cc1ccc(-c2ccccc2-c2nn[nH]n2)cc1)[C@H](C(=O)O)C(C)C"
measurement_kind = "normalized growth"
test_result = "0.98 (inactive)"

[[record]]
compound = "CCOc1nc2cccc(C(=O)OC(C)OC(=O)OC3CCCCC3)c2n1Cc1ccc(-c2ccccc2-c2nn[nH]n2)cc1 (stereo unspecified)"
measurement_kind = "normalized growth"
test_result = "0.996 (inactive)"

[[record]]
compound = "COc1cc(OC)c(-c2c(OC)cc(OC)cc2OC)c(OC)c1"
measurement_kind = "normalized growth"
test_result = "1.03 (inactive)"


# context switch: different compound, same normalized growth
For the compound shown here, "COc1c(O)cc(O)cc1O" , give the reported normalized growth.
0.99 (inactive)
